Provide the recorded SPOT signal as a fraction of Bim BH3's signal on the same receptor and array for the entries that follow.
Molecular target: T1, Mcl-1, Q07820
T1 chain: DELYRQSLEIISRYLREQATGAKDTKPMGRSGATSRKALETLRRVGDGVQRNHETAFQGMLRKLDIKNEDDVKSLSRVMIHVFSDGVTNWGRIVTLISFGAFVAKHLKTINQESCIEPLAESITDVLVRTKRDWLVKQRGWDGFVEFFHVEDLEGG
Assay: peptide SPOT array, c-Myc-tagged receptor at 1 uM or 100 nM, anti-c-Myc-Cy3
Form rule: numeric answer, no unit written next to it.

Lookup: Fill blank: measured SPOT signal as a fraction of Bim BH3's signal on the same receptor and array of the binder CLSCDLCGCRLGEVGRRLYYKLGRKL [LMO2] is ____.
Found: 0.86

Lookup: Please look up its SPOT signal as a fraction of Bim BH3's signal on the same receptor and array: LGHTGLACLFLKRGADLGARDSEGRD [ACAP1]
Found: 0.045

Lookup: Look up SPOT signal as a fraction of Bim BH3's signal on the same receptor and array: LDDSVEVIKALKNGGAHLDFRAKDGM [SHANK2]
Found: 0.02

Lookup: Look up SPOT signal as a fraction of Bim BH3's signal on the same receptor and array for this binder: LNAVNYISTVLADWADNVFFLQLQQA [RINT1]
Found: 0.03

Lookup: Field request: SPOT signal as a fraction of Bim BH3's signal on the same receptor and array | item: SQEPLEKAQLLALVGDQLIQSHHYAA [MCF2L2]
Found: 0.04

Lookup: Look up SPOT signal as a fraction of Bim BH3's signal on the same receptor and array: ALKKADVGFADGIAGTDVAKEASDII [ATP2B1]
Found: 0.01

Lookup: Please give the measured SPOT signal as a fraction of Bim BH3's signal on the same receptor and array for this binder: SQGKHGFTMAMNAFLDMTNEEFRQMM [CTSL2]
Found: 0.11

Lookup: Give its SPOT signal as a fraction of Bim BH3's signal on the same receptor and array value. Item: RTGDIALAYRLTDLGSRLLSQLERPL [KIAA1383]
Found: 0.03

Lookup: I would be grateful if you could share the reported SPOT signal as a fraction of Bim BH3's signal on the same receptor and array for VLLTLLVAAVLRCQGQDVQEAGSCVQ .
Found: 0.04

Lookup: I have this binder here, KVRAHHYSVALRRLGQLLGSRPRPPP [FASTK] , and I need its recorded SPOT signal as a fraction of Bim BH3's signal on the same receptor and array.
Found: 0.14

Lookup: Which SPOT signal as a fraction of Bim BH3's signal on the same receptor and array reading was recorded for the binder FGEYSGISENIILVLDDFWIPETSFI [ROS1] ?
Found: 0.06

Lookup: Any idea what SPOT signal as a fraction of Bim BH3's signal on the same receptor and array was measured for VLLTLLVAAVLRCQLQDVQEAGSCVQ ?
Found: 0.06

Lookup: Fill blank: measured SPOT signal as a fraction of Bim BH3's signal on the same receptor and array of the binder TRELQELARKLQELLDASENLLTENT [TXNDC11] is ____.
Found: 0.01

Lookup: Suppose we examine the binder APGEEDLCAAFNVILDNVGKDWRRLA [FADD] ; what SPOT signal as a fraction of Bim BH3's signal on the same receptor and array value has been reported?
Found: 0.06

Lookup: # get_value(readout='SPOT signal as a fraction of Bim BH3's signal on the same receptor and array', item= ANLEISYAKGLQKLASKLSKALQNTR [NOSTRIN] )
Found: 0.22

Lookup: Any idea what its SPOT signal as a fraction of Bim BH3's signal on the same receptor and array is? The binder is CALLGSTGERDCLAGDSAGGNLCFTV [LIPE]
Found: 0.01

Lookup: I am curious: what SPOT signal as a fraction of Bim BH3's signal on the same receptor and array value has been reported for RTNNYQLSDELRKNGVELTSLRQKVA [GRIPAP1] ?
Found: 0.19

Lookup: What value of SPOT signal as a fraction of Bim BH3's signal on the same receptor and array has been recorded for this entry: CHGLRELALNYHLLSDELLLALSSEK [FBXL3]
Found: 0.06

Lookup: Give its SPOT signal as a fraction of Bim BH3's signal on the same receptor and array value. Item: CALIAGATLHDAWLGDSQVILVQQGQ [PPM1F]
Found: 0.01

Lookup: What value of measured SPOT signal as a fraction of Bim BH3's signal on the same receptor and array is listed for GLTWDPVGKYIASQADDRSLKVWRTL [HIRA] ?
Found: 0.94

Lookup: Quick one: SPOT signal as a fraction of Bim BH3's signal on the same receptor and array of RFNLMQVGRLLQQLAMTGSEEGDPRT [GAPVD1] ?
Found: 0.04

Lookup: What value of measured SPOT signal as a fraction of Bim BH3's signal on the same receptor and array is listed for QASREAGAAALRNVAQRLFENYQTQS [CCDC68] ?
Found: 0.21

Lookup: Return reported SPOT signal as a fraction of Bim BH3's signal on the same receptor and array; argument: PEVRKVLADVLQDIANDNISSADYTQ [ARSG]
Found: 0.01

Lookup: What value of SPOT signal as a fraction of Bim BH3's signal on the same receptor and array has been recorded for this entry: QATHDQAVQALKRAGKEVLLEVKFIR [SNTB2]
Found: 0.02

Lookup: I'd like to know its SPOT signal as a fraction of Bim BH3's signal on the same receptor and array. The binder in question is SALETQVAAADQALADDYLAQLSLEP [TRO]
Found: 0.01

Lookup: Need SPOT signal as a fraction of Bim BH3's signal on the same receptor and array, item TYEKPQVAEALQRAARIAISVIEFKP [RTDR1]
Found: 0.02

Lookup: Name the recorded SPOT signal as a fraction of Bim BH3's signal on the same receptor and array for VIKQRRLPDQLSKLADRIQLSGRYYL [RAPGEF2] .
Found: 0.69

Lookup: // query SPOT signal as a fraction of Bim BH3's signal on the same receptor and array value for entry KNIAGALAFWMANASELLNFIKQDRD [MLLT4]
Found: 0.03

Cited source: paper PMC4072508
